Tested on: LNCaP tumor-bearing CB-17 SCID mice
RUN PARAMETERS: male, mouse, in vivo, 1 h
Biodistribution adrenals values, listed per item
RESULT TYPE: Biodistribution adrenals (% ID/g)

{"COMPOUND": "CC(C)(C)[Si](F)(c1ccc(C(=O)NC[C@H](NC(=O)CC[C@H](C(=O)O)N2CCN(CC(=O)O)CCN(CC(=O)O)CCN(CC(=O)O)CC2)C(=O)N[C@H](CCCCNC(=O)CCC(=O)NCCC[C@@H](NC(=O)CC[C@H](NC(=O)N[C@@H](CCC(=O)O)C(=O)O)C(=O)O)C(=O)O)C(=O)O)cc1)C(C)(C)C [rhPSMA7.2, [^19F][^natGa]L-Dap-R-DOTAGA-rhPSMA7, metal not drawn]", "MEASURED RESULT": 1.3}
{"COMPOUND": "CC(C)(C)[Si](F)(c1ccc(C(=O)NC[C@@H](NC(=O)CC[C@@H](C(=O)O)N2CCN(CC(=O)O)CCN(CC(=O)O)CCN(CC(=O)O)CC2)C(=O)N[C@H](CCCCNC(=O)CCC(=O)NCCC[C@@H](NC(=O)CC[C@H](NC(=O)N[C@@H](CCC(=O)O)C(=O)O)C(=O)O)C(=O)O)C(=O)O)cc1)C(C)(C)C [rhPSMA7.3, [^19F][^natGa]D-Dap-S-DOTAGA-rhPSMA7, metal not drawn]", "MEASURED RESULT": 2.2}
{"COMPOUND": "CC(C)(C)[Si](F)(c1ccc(C(=O)NC[C@@H](NC(=O)CC[C@H](C(=O)O)N2CCN(CC(=O)O)CCN(CC(=O)O)CCN(CC(=O)O)CC2)C(=O)N[C@H](CCCCNC(=O)CCC(=O)NCCC[C@@H](NC(=O)CC[C@H](NC(=O)N[C@@H](CCC(=O)O)C(=O)O)C(=O)O)C(=O)O)C(=O)O)cc1)C(C)(C)C [rhPSMA7.1, [^19F][^natGa]D-Dap-R-DOTAGA-rhPSMA7, metal not drawn]", "MEASURED RESULT": 2.0}

---

EXPERIMENT NOTES: Octanol-water partition coefficient (n-octanol/PBS pH 7.4)
Format: physicochemical
RUN PARAMETERS: pH 7.4, log P Mean
RESULT TYPE: logP

{"MOLECULE": "CC(C)(C)[Si](F)(c1ccc(C(=O)NC[C@H](NC(=O)CC[C@H](C(=O)O)N2CCN(CC(=O)O)CCN(CC(=O)O)CCN(CC(=O)O)CC2)C(=O)N[C@H](CCCCNC(=O)CCC(=O)NCCC[C@@H](NC(=O)CC[C@H](NC(=O)N[C@@H](CCC(=O)O)C(=O)O)C(=O)O)C(=O)O)C(=O)O)cc1)C(C)(C)C [rhPSMA7.2, [^19F][^natGa]L-Dap-R-DOTAGA-rhPSMA7, metal not drawn]", "RESULT TYPE": "logP", "MEASURED RESULT": -3.13}

---

System: LNCaP tumor-bearing CB-17 SCID mice
RUN PARAMETERS: male, mouse, in vivo, 1 h

{"MOLECULE": "CC(C)(C)[Si](F)(c1ccc(C(=O)NC[C@@H](NC(=O)CC[C@@H](C(=O)O)N2CCN(CC(=O)O)CCN(CC(=O)O)CCN(CC(=O)O)CC2)C(=O)N[C@H](CCCCNC(=O)CCC(=O)NCCC[C@@H](NC(=O)CC[C@H](NC(=O)N[C@@H](CCC(=O)O)C(=O)O)C(=O)O)C(=O)O)C(=O)O)cc1)C(C)(C)C [rhPSMA7.3, [^19F][^natGa]D-Dap-S-DOTAGA-rhPSMA7, metal not drawn]", "ASSAYED SYSTEM": "LNCaP tumor-bearing CB-17 SCID mice", "MEASUREMENT UNITS": "% ID/g", "Biodistribution tumor": 18.3}
{"MOLECULE": "CC(C)(C)[Si](F)(c1ccc(C(=O)NC[C@H](NC(=O)CC[C@@H](C(=O)O)N2CCN(CC(=O)O)CCN(CC(=O)O)CCN(CC(=O)O)CC2)C(=O)N[C@H](CCCCNC(=O)CCC(=O)NCCC[C@@H](NC(=O)CC[C@H](NC(=O)N[C@@H](CCC(=O)O)C(=O)O)C(=O)O)C(=O)O)C(=O)O)cc1)C(C)(C)C [rhPSMA7.4, [^19F][^natGa]L-Dap-S-DOTAGA-rhPSMA7, metal not drawn]", "ASSAYED SYSTEM": "LNCaP tumor-bearing CB-17 SCID mice", "MEASUREMENT UNITS": "% ID/g", "Biodistribution tumor": 18.9}
{"MOLECULE": "CC(C)(C)[Si](F)(c1ccc(C(=O)NC[C@@H](NC(=O)CC[C@H](C(=O)O)N2CCN(CC(=O)O)CCN(CC(=O)O)CCN(CC(=O)O)CC2)C(=O)N[C@H](CCCCNC(=O)CCC(=O)NCCC[C@@H](NC(=O)CC[C@H](NC(=O)N[C@@H](CCC(=O)O)C(=O)O)C(=O)O)C(=O)O)C(=O)O)cc1)C(C)(C)C [rhPSMA7.1, [^19F][^natGa]D-Dap-R-DOTAGA-rhPSMA7, metal not drawn]", "ASSAYED SYSTEM": "LNCaP tumor-bearing CB-17 SCID mice", "MEASUREMENT UNITS": "% ID/g", "Biodistribution tumor": 14.1}
{"MOLECULE": "CC(C)(C)[Si](F)(c1ccc(C(=O)NC[C@H](NC(=O)CC[C@H](C(=O)O)N2CCN(CC(=O)O)CCN(CC(=O)O)CCN(CC(=O)O)CC2)C(=O)N[C@H](CCCCNC(=O)CCC(=O)NCCC[C@@H](NC(=O)CC[C@H](NC(=O)N[C@@H](CCC(=O)O)C(=O)O)C(=O)O)C(=O)O)C(=O)O)cc1)C(C)(C)C [rhPSMA7.2, [^19F][^natGa]L-Dap-R-DOTAGA-rhPSMA7, metal not drawn]", "ASSAYED SYSTEM": "LNCaP tumor-bearing CB-17 SCID mice", "MEASUREMENT UNITS": "% ID/g", "Biodistribution tumor": 6.5}
